Just for reference, patent US20240270821A1 is where these values come from.

biological target: hGIPR (Homo sapiens, UniProt P48546); experiment: Functional cAMP activation in the presence of 0.1% casein (no HSA); type: cell-based; details: in the presence of 0.1% casein (no HSA); geometric mean; read-out: Relative cAMP EC50, hGIPR;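 note: intracellular cAMP rise after 30 min at 37 °C read by HTRF against a standard curve, scaled between buffer alone (0%) and top control ligand concentration (100%), four-parameter fit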
Sequence (P48546 22-466): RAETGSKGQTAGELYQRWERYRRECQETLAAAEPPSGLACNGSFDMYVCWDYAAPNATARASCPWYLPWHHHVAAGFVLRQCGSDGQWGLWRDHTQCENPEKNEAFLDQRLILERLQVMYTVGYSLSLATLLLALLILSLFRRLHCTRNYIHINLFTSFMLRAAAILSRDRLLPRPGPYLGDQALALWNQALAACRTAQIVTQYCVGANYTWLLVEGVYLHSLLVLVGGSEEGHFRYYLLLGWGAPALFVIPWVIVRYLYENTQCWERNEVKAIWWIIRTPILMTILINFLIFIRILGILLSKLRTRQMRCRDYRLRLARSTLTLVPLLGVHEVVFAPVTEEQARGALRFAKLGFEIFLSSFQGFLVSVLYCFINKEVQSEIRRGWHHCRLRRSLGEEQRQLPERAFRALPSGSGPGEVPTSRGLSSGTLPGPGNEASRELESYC
pEC50: −log10 of the molar value. Starred links: 1 amine or outer side, 2 acyl side, 3 side chain; linkers in the order of their positions; H or OH if unused. Non-standard residues stand in square brackets, D forms with d. Groups on a side chain read outwards from the residue. No end group written: not given here. *: point of attachment. C18 diacid = O=C(O)CCCCCCCCCCCCCCCCC(=O)*; γGlu = O=C(O)[C@H](CCC(=O)[*:2])N[*:1]; NMeY = CN[C@@H](Cc1ccc(O)cc1)C(=O)O; αMe4Pal = C[C@](N)(Cc1ccncc1)C(=O)O; αMeY = C[C@](N)(Cc1ccc(O)cc1)C(=O)O; 4Pal = N[C@@H](Cc1ccncc1)C(=O)O; αMeL = CC(C)C[C@](C)(N)C(=O)O; αMeS = C[C@](N)(CO)C(=O)O; Orn = NCCC[C@H](N)C(=O)O; AEEA = NCCOCCOCC(=O)O; Aib = CC(C)(N)C(=O)O
Outcome: Criterion met for pEC50 of at least 10; Criterion not met for anything lower.

Example entries and their recorded answers appear below.
H-Y[Aib]QGTFTSDFS[Orn][αMeL]LDKK([AEEA-γGlu-C18 diacid])AQ[Aib]AFIEYLLEGGPSSGEPPPSGS-NH2 [Example 131]    Criterion not met
H-Y[Aib]QGTFTSD[4Pal][αMeS]Q[αMeL]LD[Orn]K([dE-γGlu-C18 diacid])AQ[αMe4Pal]QFIE[αMeY]LIA[Aib]GPSSGEPPPSGGGE-NH2 [Example 1182]    Criterion met
[NMeY][Aib]QGTFTSD[4Pal][αMeS]I[αMeL]LD[Orn]K([dE-γGlu-C18 diacid])AQ[αMe4Pal]QFIQ[αMeY]LIE[Aib]GPSSGAPPPSGGGE-NH2 [Example 1135]    Criterion met
H-Y[Aib]QGTFTSD[4Pal]SQ[αMeL]LDKK([AEEA-γGlu-C18 diacid])AQ[αMe4Pal]AFIE[αMeY]LIEGGPSSGAPPPSGS-NH2 [Example 844]    Criterion not met
H-Y[Aib]QGTFTSDFS[Orn][αMeL]LDKK([AEEA-γGlu-C18 diacid])AQ[Aib]AFIEYLLAGGPSSGAPPPSGE[AEEA]-NH2 [Example 91]    Criterion not met

Now look at this entry.
Ask: Does the substance Y[Aib]QGTFTSD[4Pal]SQ[αMeL]LD[Orn]K([AEEA-γGlu-C18 diacid])AQ[αMe4Pal]QFIE[αMeY]LIE[Aib]GPSSGEPPPSGSEE-NH2 [Example 1098] have recorded pEC50 that is 10 or more?
Reply: Criterion not met
